- TEST_TARGET: T1, Canine IL31 (canine)
- T1 chain: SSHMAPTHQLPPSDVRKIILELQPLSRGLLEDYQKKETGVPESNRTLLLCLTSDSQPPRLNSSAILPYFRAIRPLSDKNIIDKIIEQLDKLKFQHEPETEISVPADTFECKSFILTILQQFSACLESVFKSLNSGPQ
- TEST_DESCRIPTION: SPR, BIAcore 8K, Protein A sensor chip
VALUE_TYPE: Kd (nM)
Supply the numeric figure in nM, leaving out any unit text.

Look over these answered cases.
>  <BINDER>
cmVH1 + cmVL1 chimeric antibody (antibody, human IgG1, V domains shown, also called analyte 2) VH: EVQLVESGPSLVKPGGSLRLTCSVTGDSITSGYWKWIRKFPGNKLEYMGYISYSGITDYNPSLKSRITISRDTSKNQYYLQLNSVTTEDTATYYCARYGNYGYAMDYWGQGTSVTVSS VL: DIVMTQSPASLSVSLGQRATISCRASESVDTYGRSFMHWYQQKPGQSPKLLIYRASNLESGIPARFGGSGSGTDFTLTIDPVQADDVATYYCQQSYEDPWTFGGGTKLEIK

>  <VALUE_TYPE>
Kd

>  <QUANTITATIVE_READOUT>
0.8

$$$$
>  <BINDER>
cmVH3 + cmVL2 chimeric antibody (antibody, human IgG1, V domains shown, also called analyte 5) VH: EVQLVESGPSLVKPGGSLRLTCSVTGDSITSGYWKWIRKFPGNKLEYMGYISYSGITDYNPSLKSRITISRDTSKNQYYLQLNSVTTEDTATYYCARYANYGYAMDYWGQGTSVTVSS VL: DIVMTQSPASLSVSLGQRATISCRASESVDTYGRSFMHWYQQKPGQSPKLLIYRASNLESGIPARFGGSGSGTDFTLTIDPVQADDVATYYCYQSYEDPWTFGGGTKLEIK

>  <VALUE_TYPE>
Kd

>  <QUANTITATIVE_READOUT>
0.9

$$$$

API: the following record is the query input.
Indicate the recorded Kd value for this binder: cmVH2 + cmVL3 chimeric antibody (antibody, human IgG1, V domains shown, also called analyte 4) VH: EVQLVESGPSLVKPGGSLRLTCSVTGDSITSGYWKWIRKFPGNKLEYMGYISYSGITDYNPSLKSRITISRDTSKNQYYLQLNSVTTEDTATYYCARYPNYGYAMDYWGQGTSVTVSS VL: DIVMTQSPASLSVSLGQRATISCRASESVDTYGRSFMHWYQQKPGQSPKLLIYRASNLESGIPARFGGSGSGTDFTLTIDPVQADDVATYYCHQSYEDPWTFGGGTKLEIK
0.868
